Attribute: TGI
# Tested on: BT-549 breast
# TEST NAME: NCI tumour cell line growth inhibition, 48 h
MEASURED QUANTITY: TGI

{"COMPOUND": "N#CCCN(CCC#N)c1ccc(C(N=Nc2ccccc2)=Nc2ccccc2)cc1", "MEASURED QUANTITY": "TGI", "RESULT VALUE": "> 100 µM"}
{"COMPOUND": "COc1ccc(N2C(=O)C3ON(C(C(N)=O)c4ccccc4)C(c4ccc(-c5ccccc5)cc4)C3C2=O)cc1 (configuration not stated)", "MEASURED QUANTITY": "TGI", "RESULT VALUE": "> 50 µM"}
{"COMPOUND": "CSc1nc(-c2cc3c(c(SC)n2)CCCCC3)cc2c1CCCCC2", "MEASURED QUANTITY": "TGI", "RESULT VALUE": "> 100 µM"}
{"COMPOUND": "COc1cc(CCCOC(=O)/C=C/c2ccc(O)c(O)c2)cc(O)c1O", "MEASURED QUANTITY": "TGI", "RESULT VALUE": "> 100 µM"}
{"COMPOUND": "O=C1CN2Cc3cc(N4CCOCC4)ccc3N=C2N1", "MEASURED QUANTITY": "TGI", "RESULT VALUE": "> 100 µM"}
{"COMPOUND": "N#Cc1c(-c2ccc([N+](=O)[O-])cc2)cc(-c2ccc(Nc3ccnc4cc(C(F)(F)F)ccc34)cc2)nc1N", "MEASURED QUANTITY": "TGI", "RESULT VALUE": "> 75.6 µM"}
{"COMPOUND": "CC(=O)OC1CC(n2cc(F)c(=O)[nH]c2=O)OC1CO (configuration not stated)", "MEASURED QUANTITY": "TGI", "RESULT VALUE": "> 100 µM"}
{"COMPOUND": "Cc1cn(C2CCC(/C=N\\O)O2)c(=O)[nH]c1=O (configuration not stated)", "MEASURED QUANTITY": "TGI", "RESULT VALUE": "> 100 µM"}
{"COMPOUND": "CC(=O)OCC1OC(n2c3c(c(-c4ccco4)c(C#N)c2=S)CCC3)C(OC(C)=O)C(OC(C)=O)C1OC(C)=O (configuration not stated)", "MEASURED QUANTITY": "TGI", "RESULT VALUE": "> 100 µM"}
{"COMPOUND": "COc1ccc(C(=O)c2ccc(OC)c(OC)c2OC)cc1", "MEASURED QUANTITY": "TGI", "RESULT VALUE": "> 100 µM"}
{"COMPOUND": "CC(N)C(C)Cc1ccccc1 (configuration not stated)", "MEASURED QUANTITY": "TGI", "RESULT VALUE": "> 100 µM"}
{"COMPOUND": "COc1ccc(NC(=O)n2nc(N)c3ccccc32)cc1OC", "MEASURED QUANTITY": "TGI", "RESULT VALUE": "> 100 µM"}

###

# Test system: T-47D breast
# TEST NAME: NCI tumour cell line growth inhibition, 48 h
MEASURED QUANTITY: TGI

{"MOLECULE": "Cc1cc2cc3cc(C)c(N(C)C)cc3nc2cc1N(C)C", "MEASURED QUANTITY": "TGI", "RESULT VALUE": "> 100 µM"}
{"MOLECULE": "CC(=O)OC1CC(n2cc(F)c(=O)[nH]c2=O)OC1CO (configuration not stated)", "MEASURED QUANTITY": "TGI", "RESULT VALUE": "> 100 µM"}
{"MOLECULE": "CCCCC(=O)Nc1ccc2cc(C(=O)OC)c(ON3C(=O)c4ccccc4C3=O)nc2n1", "MEASURED QUANTITY": "TGI", "RESULT VALUE": "> 100 µM"}
{"MOLECULE": "O=c1cc(N2CCOCC2)[nH]c(=O)n1-c1cccc(C(F)(F)F)c1", "MEASURED QUANTITY": "TGI", "RESULT VALUE": "> 100 µM"}
{"MOLECULE": "Clc1ccc(Oc2ccc(N=Cc3ccc(Cl)cc3Cl)cc2Cl)cc1", "MEASURED QUANTITY": "TGI", "RESULT VALUE": "> 100 µM"}
{"MOLECULE": "CC(C)(C)N(Cc1ccc2c(c1)OCO2)C(=O)/C=C\\S(=O)c1ccccc1 (configuration not stated)", "MEASURED QUANTITY": "TGI", "RESULT VALUE": "14.3 µM"}
{"MOLECULE": "CS(=O)CCCCCN=C=S (configuration not stated)", "MEASURED QUANTITY": "TGI", "RESULT VALUE": "7.56 µM"}
